Entry source: the supplement of paper PMC6607015

test system: HeLa MZ; assay: whole-cell filipin (free cholesterol) integrated intensity, Z-score; higher = more cholesterol staining; details: compound concentration in added solution (µM; 5 µl added to 20 µl cells): 10; 18 h
Quick reference: whole-cell filipin (z-score) of the listed items.
Write no unit; give the number alone.

Q: Check the records and state whole-cell filipin (z-score) for CCN(C)C(=O)Oc1cccc([C@H](C)N(C)C)c1 [Rivastigmine]
Result: 1.82

Q: Output measured whole-cell filipin (z-score) for this item: O=[N+]([O-])O[C@@H]1CO[C@H]2[C@@H]1OC[C@@H]2O [Isosorbide mononitrate]
Result: -0.408

Q: Identify the reported whole-cell filipin (z-score) for the following entry. C[C@@H]1CC[C@H]2[C@@H](C)C(=O)O[C@@H]3O[C@@]4(C)CC[C@@H]1[C@]32OO4 [Artemisinin]
Result: 0.161

Q: Given the compound C[N+]1(C)CCOC(O)(c2ccc(-c3ccc(C4(O)C[N+](C)(C)CCO4)cc3)cc2)C1 (stereo not given) [Hemicholinium bromide] , write its reported whole-cell filipin (z-score).
Result: -0.638

Q: // Input: C=CCC1(CC(C)C)C(=O)NC(=O)NC1=O [Butalbital] . Output its whole-cell filipin (z-score) only.
Result: -0.648

====

test system: A431; assay: LBPA endosome anti-LBPA integrated intensity (sum per cell), Z-score; higher = more LBPA staining; details: compound concentration in added solution (µM; 5 µl added to 20 µl cells): 10; 18 h
Counter-ions that a name gives are not always drawn.
Quick rule for you: LBPA endosome anti-LBPA integrated intensity (z-score) at -0.4 or higher means YES, lower means NO.

Check out these entries, answers already filled in.
compound	system_under_test	assigned_class
COc1cc2c(cc1OC)C(C)NCC2 (stereo not drawn)	A431	NO
C=C1CC[C@@]2(O)[C@H]3Cc4ccc(O)c5c4[C@@]2(CCN3CC2CC2)[C@H]1O5 [Nalmefene hydrochloride]	A431	YES

Q: Reported LBPA endosome anti-LBPA integrated intensity (z-score) reaches at least -0.4 for c1ccc2c(c1)OCC(C1=NCCN1)O2 (stereo not drawn) [Idazoxan hydrochloride] ?
Result: YES

Q: Test whether the compound N[C@@H]1C[C@H]1c1ccccc1 [Tranylcypromine hydrochloride] records LBPA endosome anti-LBPA integrated intensity (z-score) of -0.4 or higher.
Result: NO

Q: Could you tell me if the measured LBPA endosome anti-LBPA integrated intensity (z-score) of O=[N+]([O-])O[C@@H]1CO[C@H]2[C@@H]1OC[C@@H]2O [Isosorbide mononitrate] reaches -0.4 or more?
Result: NO

Q: Reported LBPA endosome anti-LBPA integrated intensity (z-score) at or above -0.4? Fc1ccc(C(OCCN2CCN(CCCc3ccccc3)CC2)c2ccc(F)cc2)cc1
Result: YES

Q: Can CCC(=O)O[C@H]1CC[C@H]2[C@@H]3CCC4=CC(=O)CC[C@]4(C)[C@H]3CC[C@]12C [Testosterone propionate] be said to have LBPA endosome anti-LBPA integrated intensity (z-score) at or above -0.4?
Result: NO

Q: Is it the case that CC(Cc1ccc(O)cc1)NCC(O)c1cc(O)cc(O)c1 (stereo not drawn) [Fenoterol hydrobromide] has LBPA endosome anti-LBPA integrated intensity (z-score) reaching or exceeding -0.4?
Result: YES

Q: For this compound, is measured LBPA endosome anti-LBPA integrated intensity (z-score) -0.4 or higher? CNC(=O)Oc1ccc2c(c1)[C@]1(C)CCN(C)[C@@H]1N2C [Eserine sulfate, physostigmine sulfate]
Result: NO

Q: Please check the record C[C@]12N[C@H](Cc3ccccc31)c1ccccc12 [Dizocilpine maleate] and state if its LBPA endosome anti-LBPA integrated intensity (z-score) is at or above -0.4.
Result: YES

====

system: A431; assay: whole-cell filipin (free cholesterol) integrated intensity, Z-score; higher = more cholesterol staining; settings: compound concentration in added solution (µM; 5 µl added to 20 µl cells): 10; 18 h
Where a name gives a salt, the structure may show the parent alone.
Use -0.3 as the dividing line for whole-cell filipin (z-score), with the line itself on the YES side and lower values as NO.

Worked examples, 3 molecules total:
molecule	system_under_test	assigned_class
C[C@]12CCC(=O)C(O)=C1CC[C@@H]1[C@@H]2CC[C@]2(C)C(=O)CC[C@@H]12	A431	YES
C[N+]1(C)[C@@H]2CC[C@H]1C[C@@H](OC(=O)C(CO)c1ccccc1)C2 (stereo not given in full) [Methylatropine nitrate]	A431	YES
CC(C)(N)Cc1ccccc1 [Phentermine hydrochloride]	A431	YES

Q: Check the entry c1ccc2nc(N3CCNCC3)ccc2c1 [Quipazine dimaleate salt] : does whole-cell filipin (z-score) equal or exceed -0.3?
Result: NO

====

Recorded whole-cell filipin (z-score) values for a group of molecules are listed next.
test system: A431; assay: whole-cell filipin (free cholesterol) integrated intensity, Z-score; higher = more cholesterol staining; settings: compound concentration in added solution (µM; 5 µl added to 20 µl cells): 10; 18 h
Structures can show the parent of a compound that is named as a salt.
Would you mind answering with just the numeric figure?

molecule	observed_value
C[N+]1([O-])[C@@H]2C[C@@H](OC(=O)[C@H](CO)c3ccccc3)C[C@H]1[C@@H]1O[C@@H]12 (some centres not stated) [Scopolamin-N-oxide hydrobromide]	-1.01

Q: # return recorded whole-cell filipin (z-score) for input CC(=O)O[C@H]1CC[C@@]2(C)C(=CC[C@@H]3[C@@H]2CC[C@]2(C)C(=O)CC[C@@H]32)C1 [Dehydroisoandosterone 3-acetate]
Result: 0.0526

Q: Retrieve whole-cell filipin (z-score) measured for Clc1ccc(C(OCCN2CCCCC2)c2ccccc2)cc1 (configuration not stated) [Cloperastine hydrochloride] and print it.
Result: 1.35

Q: Provide measured whole-cell filipin (z-score) value, entry: CC(=O)NC1CCSC1=O (racemic)
Result: -0.462

Q: Consider the molecule NCC1(CC(=O)O)CCCCC1 . State its measured whole-cell filipin (z-score).
Result: -0.349

Q: For the molecule O=P1(NCCCl)OCCCN1CCCl (configuration not stated) [Ifosfamide] , give its measured whole-cell filipin (z-score) value.
Result: 0.0112

Q: Return whole-cell filipin (z-score) for the following molecule: COc1cccc(C2(O)CCCCC2CN(C)C)c1 (configuration not stated) [Tramadol hydrochloride]
Result: -0.062

Q: Read the entry CCN(C(C)=O)c1cccc(-c2ccnc3c(C#N)cnn23)c1 and write its reported whole-cell filipin (z-score).
Result: -0.573

Q: Indicate its recorded whole-cell filipin (z-score); the molecule in question is COc1ccc(OC)c(C(O)C(C)N)c1 (configuration not stated) [Methoxamine hydrochloride]
Result: -0.614

Q: Identify the reported whole-cell filipin (z-score) for the following entry. CN1[C@@H]2CC[C@H]1C[C@@H](OC(=O)C(CO)c1ccccc1)C2 (some centres not stated) [Atropine sulfate monohydrate]
Result: -0.533

Q: Look up whole-cell filipin (z-score) of Fc1ccc(C(OCCN2CCN(CCCc3ccccc3)CC2)c2ccc(F)cc2)cc1 and report it.
Result: 1.65

Q: Please list whole-cell filipin (z-score) recorded for the molecule C[N+](C)(C)CCCCCCCCCC[N+](C)(C)C [Decamethonium bromide]
Result: 0.0371

Q: Identify measured whole-cell filipin (z-score) corresponding to CN1C[C@H](C(=O)N[C@]2(C)O[C@@]3(O)[C@@H]4CCCN4C(=O)[C@H](Cc4ccccc4)N3C2=O)C[C@@H]2c3cccc4[nH]cc(c34)C[C@H]21 [Dihydroergotamine tartrate]
Result: 1.06

====

test system: A431; assay: LBPA endosome anti-LBPA integrated intensity (sum per cell), Z-score; higher = more LBPA staining; details: compound concentration in added solution (µM; 5 µl added to 20 µl cells): 10; 18 h
Counter-ions that a name gives are not always drawn.
measured_endpoint: LBPA endosome anti-LBPA integrated intensity (z-score)
Answer using only a numeral; do not append any unit.

// below: answered compounds
compound	system_under_test	observed_value
S=C(NC1CCCCC1)N1CCC(c2cnc[nH]2)CC1 [Thioperamide maleate]	A431	2.17
CC(=O)NC1CCSC1=O (racemic)	A431	-0.475

Q: Indicate its recorded LBPA endosome anti-LBPA integrated intensity (z-score); the compound in question is O=C(NCNC(=O)NC1C(=O)NC(=O)N1CO)NC1C(=O)NC(=O)N1CO (centres undefined)
Result: -0.433

Q: Give a short answer stating reported LBPA endosome anti-LBPA integrated intensity (z-score) for C=C1C[C@@H]2[C@H](CC[C@]3(C)C(=O)CC[C@@H]23)[C@@]2(C)C=CC(=O)C=C12 .
Result: -0.59

Q: For the compound C[C@]12CCC(=O)C(O)=C1CC[C@@H]1[C@@H]2CC[C@]2(C)C(=O)CC[C@@H]12 , give its reported LBPA endosome anti-LBPA integrated intensity (z-score).
Result: 1.1

====

system: HeLa MZ; assay: LBPA endosome anti-LBPA integrated intensity (sum per cell), Z-score; higher = more LBPA staining; settings: compound concentration in added solution (µM; 5 µl added to 20 µl cells): 10; 18 h
Counter-ions that a name gives are not always drawn.
Record True whenever LBPA endosome anti-LBPA integrated intensity (z-score) is at -0.07 or higher; record False when lower.

Known results for molecules:
molecule	assigned_class
CN1[C@@H]2C[C@@H](OC(=O)[C@H](CO)c3ccccc3)C[C@H]1[C@@H]1O[C@@H]12 [Scopolamine hydrochloride]	False
CN1[C@@H]2CC[C@H]1C[C@@H](OC1c3ccccc3CCc3ccccc31)C2 [Deptropine citrate]	True
c1ccc2c(c1)OCC(C1=NCCN1)O2 (stereo not drawn) [Idazoxan hydrochloride]	True
O=[N+]([O-])O[C@H]1CO[C@H]2[C@@H]1OC[C@H]2O[N+](=O)[O-] [Isosorbide dinitrate]	False

Q: I'd appreciate it if you could say whether C[C@]12Cc3c[nH]nc3C[C@@H]1CC[C@@H]1[C@@H]2CC[C@@]2(C)[C@H]1CC[C@]2(C)O [Stanozolol] has LBPA endosome anti-LBPA integrated intensity (z-score) at least equal to -0.07.
Result: True

Q: Say whether CCCC(C)C1(CC)C(=O)NC(=O)NC1=O (stereo not drawn) [Pentobarbital] shows LBPA endosome anti-LBPA integrated intensity (z-score) of -0.07 or more.
Result: False

Q: Evaluate C[C@@]12N[C@@H](Cc3ccccc31)c1ccccc12 [(-)-MK 801 hydrogen maleate] : LBPA endosome anti-LBPA integrated intensity (z-score) at minimum -0.07?
Result: True

Q: Identify whether the reported LBPA endosome anti-LBPA integrated intensity (z-score) of the following molecule is -0.07 or greater: O=C(CCCN1CCC(n2c(=O)[nH]c3ccccc32)CC1)c1ccc(F)cc1 [Benperidol]
Result: True

Q: Tell me whether LBPA endosome anti-LBPA integrated intensity (z-score) is at least -0.07 here: C=C1C[C@@H]2[C@H](CC[C@]3(C)C(=O)CC[C@@H]23)[C@@]2(C)C=CC(=O)C=C12 [Exemestane]
Result: True

Q: For this molecule, is measured LBPA endosome anti-LBPA integrated intensity (z-score) -0.07 or higher? C[C@H](N)[C@H](O)c1ccc(O)c(O)c1 [Levonordefrin]
Result: True

Q: Reported LBPA endosome anti-LBPA integrated intensity (z-score) reaches at least -0.07 for O=P1(N(CCCl)CCCl)NCCCO1 (stereo not drawn) [Cyclophosphamide] ?
Result: True

Q: Reported LBPA endosome anti-LBPA integrated intensity (z-score) at or above -0.07? CC(C)C[C@H]1C(=O)N2CCC[C@H]2[C@]2(O)O[C@](NC(=O)[C@@H]3C=C4c5cccc6[nH]c(Br)c(c56)C[C@H]4N(C)C3)(C(C)C)C(=O)N12 [Bromocryptine mesylate]
Result: True

Q: Given S=C(NC1CCCCC1)N1CCC(c2cnc[nH]2)CC1 [Thioperamide maleate] , state whether its LBPA endosome anti-LBPA integrated intensity (z-score) is at least -0.07.
Result: True

Q: Hi team, for N[C@@H]1C[C@H]1c1ccccc1 [Tranylcypromine hydrochloride] , is the recorded LBPA endosome anti-LBPA integrated intensity (z-score) at or above -0.07?
Result: False

Q: Please indicate if the recorded LBPA endosome anti-LBPA integrated intensity (z-score) for CCC1(C)CC(=O)NC(=O)C1 [Bemegride] meets or exceeds -0.07.
Result: False

Q: Is it the case that C[C@]12COC(=O)C[C@@H]1CC[C@@H]1[C@@H]2CC[C@@]2(C)[C@H]1CC[C@]2(C)O [Oxandrolone] has LBPA endosome anti-LBPA integrated intensity (z-score) reaching or exceeding -0.07?
Result: True

Q: Could you tell me if the measured LBPA endosome anti-LBPA integrated intensity (z-score) of CCN(C)C(=O)Oc1cccc([C@H](C)N(C)C)c1 [Rivastigmine] reaches -0.07 or more?
Result: False
